- ASSAY TARGET: T1, human TREM2 (human) (UniProt Q9NZC2)
- T1 sequence (looked up): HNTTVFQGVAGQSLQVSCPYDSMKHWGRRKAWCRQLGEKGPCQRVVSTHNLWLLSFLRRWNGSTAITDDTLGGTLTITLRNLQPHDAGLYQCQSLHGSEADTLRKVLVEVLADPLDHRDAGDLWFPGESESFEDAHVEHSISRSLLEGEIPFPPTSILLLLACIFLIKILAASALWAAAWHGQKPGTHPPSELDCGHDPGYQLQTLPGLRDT
- METHOD DESCRIPTION: 1st screen, 10 nM Ab
Hi there, I'd appreciate the recorded Binding Signal (fold over 6E7 parental antibody) for every entry that follows.
Answer with the number, then the unit.

[ask] Need Binding Signal (fold over 6E7 parental antibody), item 6E7 variant V76 (antibody, V domains shown) VH: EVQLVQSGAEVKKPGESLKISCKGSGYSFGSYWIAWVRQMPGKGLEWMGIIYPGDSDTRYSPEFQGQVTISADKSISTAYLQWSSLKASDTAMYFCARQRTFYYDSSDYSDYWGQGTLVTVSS VL: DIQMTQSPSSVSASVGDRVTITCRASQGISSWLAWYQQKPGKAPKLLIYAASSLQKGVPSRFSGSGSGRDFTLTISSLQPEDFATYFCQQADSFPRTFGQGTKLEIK
[reply] 4.57 fold

[ask] Need Binding Signal (fold over 6E7 parental antibody), item 6E7 variant V88 (antibody, V domains shown) VH: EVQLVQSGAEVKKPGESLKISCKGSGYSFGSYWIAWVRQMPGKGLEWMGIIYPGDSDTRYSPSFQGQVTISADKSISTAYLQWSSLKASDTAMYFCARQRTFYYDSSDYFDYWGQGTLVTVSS VL: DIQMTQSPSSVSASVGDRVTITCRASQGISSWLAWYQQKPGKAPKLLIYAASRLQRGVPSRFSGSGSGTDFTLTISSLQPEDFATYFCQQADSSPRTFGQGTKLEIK
[reply] 4.92 fold

Values from patent US20260250381A1
